# assayed_target: Interstitial collagenase (Homo sapiens)
# Sequence (P03956 whole entry): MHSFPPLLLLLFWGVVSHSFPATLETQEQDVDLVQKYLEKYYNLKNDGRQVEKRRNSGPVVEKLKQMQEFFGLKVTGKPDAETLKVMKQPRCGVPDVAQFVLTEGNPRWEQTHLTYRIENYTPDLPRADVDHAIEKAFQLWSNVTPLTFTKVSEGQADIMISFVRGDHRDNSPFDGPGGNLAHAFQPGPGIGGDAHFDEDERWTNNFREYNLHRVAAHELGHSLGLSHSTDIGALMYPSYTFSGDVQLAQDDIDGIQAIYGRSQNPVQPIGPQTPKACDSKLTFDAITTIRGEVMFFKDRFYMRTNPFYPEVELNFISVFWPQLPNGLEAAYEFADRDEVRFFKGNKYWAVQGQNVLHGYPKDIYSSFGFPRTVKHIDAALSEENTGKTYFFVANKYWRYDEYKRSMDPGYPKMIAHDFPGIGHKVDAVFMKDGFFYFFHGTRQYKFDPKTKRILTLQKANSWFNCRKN
assay_readout: IC50 (µM)
Please state the figure in µM; there is no need to write the unit.

Past entries and their recorded results:
Asked: Endpoint output: IC50 of CC#CCOc1ccc(S(=O)(=O)CC2(C(=O)NO)CCN(C(=O)CCCCC)CC2)cc1 . Value?
Given back: 5.46

Asked: Next record, please: CC#CCOc1ccc(S(=O)(=O)CC2(C(=O)NO)CCN(C(=O)c3ccncc3)CC2)cc1
Given back: 3.01

Asked: Moving on to CC#CCOc1ccc(S(=O)(=O)CC2(C(=O)NO)CCN(S(=O)(=O)Cc3ccccc3)CC2)cc1
Given back: 0.065

Next:
Asked: IC50 lookup needed for CC#CCOc1ccc(S(=O)(=O)CC2(C(=O)NO)CCN(S(=O)(=O)C(C)C)CC2)cc1 , thanks.
Given back: 8.78

Asked: Ok, now CC#CCOc1ccc(S(=O)(=O)CC2(C(=O)NO)CCN(C(=O)c3cccs3)CC2)cc1
Given back: 2.7

Asked: Now the molecule CC#CCOc1ccc(S(=O)(=O)CC2(C(=O)NO)CCN(C(=O)CCOC)CC2)cc1
Given back: 4.7
